Quick reference for pIC50 among some binders
- test-target: T1, PCSK9Δhelix (human, UniProt Q8NBP7 31-152; Q8NBP7 168-692)
- T1 construct: Made by TEV cleavage of human PCSK9 M1-Q692 with an engineered TEV site; The new N-terminus of the catalytic domain is S-A168; also called His-PCSK9Δhelix; PCSK9 lacking the P' helix
- T1 sequence (Q8NBP7 31-152, stated change not applied, chain 1 of 2): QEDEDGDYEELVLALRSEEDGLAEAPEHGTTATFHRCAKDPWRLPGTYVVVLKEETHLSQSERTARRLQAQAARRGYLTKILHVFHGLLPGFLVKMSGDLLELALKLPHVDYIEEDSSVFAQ
- T1 sequence (Q8NBP7 other isoform, or with tags, fused parts or gaps mutant, chain 2 of 2): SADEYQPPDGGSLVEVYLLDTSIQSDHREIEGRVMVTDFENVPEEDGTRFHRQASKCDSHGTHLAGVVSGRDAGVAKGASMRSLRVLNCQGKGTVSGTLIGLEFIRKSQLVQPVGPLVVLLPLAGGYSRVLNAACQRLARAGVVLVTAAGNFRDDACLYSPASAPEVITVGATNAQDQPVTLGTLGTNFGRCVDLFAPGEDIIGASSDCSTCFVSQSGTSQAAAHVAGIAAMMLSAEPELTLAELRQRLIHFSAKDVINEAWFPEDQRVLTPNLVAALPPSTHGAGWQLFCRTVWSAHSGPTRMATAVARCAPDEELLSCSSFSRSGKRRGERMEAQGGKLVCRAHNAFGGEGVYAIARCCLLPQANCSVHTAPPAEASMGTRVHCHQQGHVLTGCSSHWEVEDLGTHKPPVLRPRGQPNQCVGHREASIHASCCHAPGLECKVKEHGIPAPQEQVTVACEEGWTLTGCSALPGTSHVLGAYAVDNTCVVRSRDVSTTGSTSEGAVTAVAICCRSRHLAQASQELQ
- test-summary: TR-FRET competition; competitor Ab20 binding to His-PCSK9Δhelix;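 also: readout is anti-His-APC on PCSK9 with anti-Fc-europium on the Fc-tagged ligand, compound incubated 30 min, normalized signal ratio fitted by four-parameter logistic regression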
// pIC50: -log10(molar conc.)

binder="Ac-WNLVRIGL-NH2 [Compound 120]" value_observed=4.31
binder="Ac-DLAPWNLVRIGLLR-NH2 [Compound 43]" value_observed=5.09
binder="Ac-LMPWNLVRIGLLR-NH2 [Compound 50]" value_observed=5.58

Could you now look at the following binder, please?
Fill in: pIC50 of Ac-ALMPWNLVRIGLLR-NH2 [Compound 45] is ___ 5.69
